assay_comment: log P by HPLC on reversed-phase column (C18), EEC Directive 79/831 Annex V.A8
Type: physicochemical
assay_setup: reversed-phase C18 HPLC column; HPLC, C18, acetonitrile/water with formic acid gradient; read-out: log P
quantity_kind: chromatographic logP
Answers are plain numbers.

Reference set (5 entries):
Prompt line: Given the entry O=C(NC1CC1)c1cc(I)ccc1Cl [2-chloro-N-cyclopropyl-5-iodobenzamide] , report its measured chromatographic logP.
Response line: 2.13

Prompt line: What do you get for CON(C)C(=O)c1c(C(F)(F)F)c(C(F)(F)C(F)(F)F)nn1C ?
Response line: 3.22

Prompt line: What do you get for CC(=O)c1c(C(F)(F)F)c(C(F)(F)C(F)(F)F)nn1C ?
Response line: 3.61

Prompt line: What do you get for Cn1nc(C(F)(F)C(F)(F)F)c(C(F)(F)F)c1B1OC(C)(C)C(C)(C)O1 ?
Response line: 5.05

Prompt line: What do you get for Cn1nc(C(F)(F)C(F)(F)F)c(C(F)(F)F)c1-c1nn[nH]n1 ?
Response line: 2.11

For each entry beneath this line, provide reported chromatographic logP.
1. Cn1nc(C(F)(F)C(F)(F)F)c(C(F)(F)F)c1-c1c[nH]nn1
2. O=C(NC1CC1)c1cc(B(O)O)ccc1Cl
3. Cn1nc(C(F)(F)C(F)(F)F)c(C(F)(F)F)c1-c1ccn(-c2ccc(Cl)c(C(=O)NC3CC3)c2)n1
4. Cn1nc(C(F)(F)C(F)(F)F)c(C(F)(F)F)c1-c1cnn(-c2ccc(Cl)c(C(=O)NC3CC3)c2)n1
5. Cn1nc(C(F)(F)C(F)(F)F)c(C(F)(F)F)c1-c1cn(-c2ccc(Cl)c(C(=O)NC3CC3)c2)nn1
6. [N-]=[N+]=Nc1ccc(Cl)c(C(=O)NC2CC2)c1 [5-azido-2-chloro-N-cyclopropylbenzamide]

Response line:
2.78
0.96
4.05
4.17
3.67
1.8

For each entry beneath this line, provide reported chromatographic logP.
1. CN(C)/C=C/C(=O)c1c(C(F)(F)F)c(C(F)(F)C(F)(F)F)nn1C
2. O=C(NC1CC1)c1cc(-n2cc(Br)cn2)ccc1Cl
3. Cn1nc(C(F)(F)C(F)(F)F)c(C(F)(F)F)c1-c1cc[nH]n1
4. C#Cc1c(C(F)(F)F)c(C(F)(F)C(F)(F)F)nn1C
5. Cn1nc(C(F)(F)C(F)(F)F)c(C(F)(F)F)c1-c1nnn(-c2ccc(Cl)c(C(=O)NC3CC3)c2)n1

Response line:
1. 2.77
2. 2.36
3. 3.03
4. 3.74
5. 4.06
